Origin of values: patent EP4759814A1

STUDY_SYSTEM: MAT2A (Homo sapiens, UniProt P31153)
Sequence (P31153 whole entry): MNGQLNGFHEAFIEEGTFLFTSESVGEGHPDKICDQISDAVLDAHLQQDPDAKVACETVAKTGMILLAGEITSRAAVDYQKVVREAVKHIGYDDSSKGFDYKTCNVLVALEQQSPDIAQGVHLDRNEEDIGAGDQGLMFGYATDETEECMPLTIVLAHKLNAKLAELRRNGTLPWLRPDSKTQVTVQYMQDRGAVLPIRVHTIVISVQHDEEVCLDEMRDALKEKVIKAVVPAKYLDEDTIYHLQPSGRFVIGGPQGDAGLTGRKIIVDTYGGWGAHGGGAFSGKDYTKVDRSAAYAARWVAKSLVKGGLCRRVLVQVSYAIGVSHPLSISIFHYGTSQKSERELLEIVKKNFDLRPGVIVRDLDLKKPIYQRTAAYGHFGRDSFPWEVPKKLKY
OBSERVATION_TYPE: IC50

molecule="Cc1ccccc1-n1c(=O)c2nccn2c2ccc(Cl)cc21 (atropisomer, axis not shown; (Sa)) [Example 21]" observation_type=IC50 test_result="1 to 100 nM"
molecule="Cc1ccccc1-n1c(=O)c2nccn2c2ccc(C(F)F)nc21 [Example 46]" observation_type=IC50 test_result="100 to 1000 nM"
molecule="Cc1ncccc1-n1c(=O)c2ncc(C)n2c2ccc(Cl)cc21 [Example 34]" observation_type=IC50 test_result="1 to 100 nM"
molecule="CCc1ncccc1-n1c(=O)c2nccn2c2cc(Cl)c(C(F)(F)F)cc21 (atropisomer, axis not shown; (Ra)) [Example 111]" observation_type=IC50 test_result="> 10000 nM"
molecule="Cc1ccc2c(n1)n(-c1ccccc1C)c(=O)c1nccn12 [Example 36]" observation_type=IC50 test_result="100 to 1000 nM"
molecule="COc1cc(C(F)(F)F)cc2c1n1ccnc1c(=O)n2-c1cccnc1C [Example 113]" observation_type=IC50 test_result="1 to 100 nM"

IC50 measured on Cc1cccc(-n2c(=O)c3nccn3c3ccc(Cl)cc32)c1C [Example 4] = 100 to 1000 nM

Cc1ncccc1-n1c(=O)c2ncc(C)n2c2cc(Cl)c(C(F)(F)F)cc21 [Example 99] has a reported IC50 of 1 to 100 nM
